Molecular target: cynomolgus BK1-receptor (Macaca fascicularis, UniProt Q3BCU0)
Construct: expressed in transfected cells; host or cells: CHO cells (homogenate)
Sequence (Q3BCU0 whole entry): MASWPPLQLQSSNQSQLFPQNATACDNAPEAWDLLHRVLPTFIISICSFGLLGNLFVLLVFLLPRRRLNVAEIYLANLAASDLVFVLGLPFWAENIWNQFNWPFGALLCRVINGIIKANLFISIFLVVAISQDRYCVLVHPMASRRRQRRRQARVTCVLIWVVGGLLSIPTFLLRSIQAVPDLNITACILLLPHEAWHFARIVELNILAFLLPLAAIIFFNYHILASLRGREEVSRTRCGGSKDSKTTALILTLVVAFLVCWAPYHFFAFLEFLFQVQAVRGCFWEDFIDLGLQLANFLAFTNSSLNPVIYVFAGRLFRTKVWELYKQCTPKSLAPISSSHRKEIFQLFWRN
Test: cynoBK1-receptor binding assay
Details: at 10 μgmol/L; CHO cells expressing cynomolgus BK1-receptor, radioligand kallidine (DesArg10,Leu9)
Description: Description of the Method of Binding the cynoBK1-Receptor CHO cells that express the cynomolgus BK1-receptor are cultivated in “HAM'S F-12 Medium”. […] After the protein content has been determined 200 μl of the homogenate (50 to 250 μg protein/assay) are incubated for 60-180 minutes at ambient temperature with 0.5 to 5.0 nM kallidine (DesArg10,Leu9), [3,4-Prolyl-3,43H(N)] and increasing concentrations of the test substance in a total volume of 250 μl. […]
OBSERVED_PROPERTY: inhibition at 10 µM (%)

Observe how each entry below is paired with its result.
COMPOUND	RECORDED_RESULT
CC(NC(=O)C1(NC(=O)c2cncc(N)c2)CC1)c1ncc(Nc2c(F)cccc2C(F)(F)F)cc1F (centres unmarked)	113
O=C(O)c1ccc(Nc2ccc(CNC(=O)C3(NC(=O)c4cncnc4)CC3)nc2)c(C(F)(F)F)c1	42
CN1CCC(C(=O)NC2(C(=O)NCc3ccc(Nc4ccccc4C(F)(F)F)cc3)CC2)CC1	60
N#C/C(=N\O)C(=O)N[C@@]1(C(=O)NCc2ccc(Nc3ccccc3C(F)(F)F)cc2)CCOC1	81
N#Cc1ccc(F)cc1Nc1ccc(CNC(=O)C2(NC(=O)c3cncnc3)CC2)cc1	77

1 = COCC(=O)NC1(C(=O)NCc2ccc(Nc3ccccc3C(F)(F)F)cc2)CC1
2 = O=C(N[C@@]1(C(=O)NCc2ccc(Nc3ccccc3C(F)(F)F)cc2)CCOC1)c1ccco1
Which of the two items, 1 and 2 , has the greater recorded inhibition at 10 µM? Write the label of whichever entry you select.
1

P = COC1CC(C(=O)N[C@@]2(C(=O)NCc3ccc(Nc4ccccc4C(F)(F)F)cc3)CCOC2)C1 (some centres unmarked)
Q = N#Cc1cc(Cl)ccc1Nc1ccc(CNC(=O)C2(NC(=O)c3cncnc3)CC2)cc1
Consider P and Q . Which of these has its inhibition at 10 µM at a higher number? Provide the label of your selected option as the answer.
Q
(Q: 104%, P: 71%)

P = O=C(NC1(C(=O)NCc2ccc(Nc3c(F)cccc3Cl)cn2)CC1)c1cncnc1
Q = O=C(NC1(C(=O)NCc2ccc(Nc3cccc(Cl)c3Cl)cc2)CC1)c1cncnc1
Given P and given Q , which shows the smaller recorded inhibition at 10 µM? Respond using the label that marks the chosen record.
Q

---

pKi: −log10 of the molar value.
pKi values recorded for cynomolgus BK1-receptor (Macaca fascicularis, UniProt Q3BCU0)
OBSERVED_PROPERTY: pKi

Consider the worked cases shown below.
MOL_SMILES	OBSERVED_PROPERTY	RECORDED_RESULT
Cc1cc(C(=O)NC2(C(=O)NCc3ccc(Nc4ccc(F)cc4C(F)(F)F)cn3)CC2)cnc1N	pKi	8.03
O=C(NC1(C(=O)NCc2ccc(Nc3ccc(F)cc3C(F)(F)F)cn2)CC1)c1cncc(Cl)c1	pKi	7.31
CNc1cncc(C(=O)N[C@@]2(C(=O)NCc3ncc(Nc4c(F)cccc4C(F)(F)F)cc3Cl)CCOC2)c1	pKi	6.40

I = O=C(NC1(C(=O)NCc2ccc(Nc3ccc(F)cc3C(F)(F)F)cn2)CC1)c1cncnc1
II = O=C(NC1(C(=O)NCc2ccc(Nc3ccc(Cl)cc3C(F)(F)F)cn2)CC1)c1cncc(Cl)c1
III = Nc1cncc(C(=O)N[C@@]2(C(=O)NCc3ncc(Nc4ccccc4C(F)(F)F)cc3F)CCOC2)c1
Ascending by pKi, please. The labels, placed in the requested order, form the answer.
II, III, I

I = O=C(NC1(C(=O)NCc2ccc(Nc3ccc(Cl)cc3C(F)(F)F)cn2)CC1)c1cncnc1
II = Cc1cc(Nc2ccccc2C(F)(F)F)cnc1CNC(=O)C1(NC(=O)c2cncc(N)c2)CC1
Record comparison, field pKi: mark the lower of I and II . Field: selected label. Fill in the label of the entry you choose.
II
